system: Fibroblast; experiment: Multiplex assay against human fibroblast; format: toxicity, cell-based; settings: 12 h, 1 µM, compound concentration 1 uM, replicate 1
We label by threshold. Values of Population Pyknosed Nuclei (%) strictly beneath 20% are T. Values of 20% and up are F.

Some solved entries appear below for comparison.
COMPOUND: Cc1cn(-c2cc(NC(=O)c3ccc4c(c3)CN(c3cncnc3)C[C@@H]4C)cc(C(F)(F)F)c2)cn1
LABEL CLASS: T
//
COMPOUND: COc1cc2c(NC3CCN(C(C)C)CC3)nc(N3CCC(F)(F)CC3)nc2cc1OCCCN1CCCC1
LABEL CLASS: F

Please check: Population Pyknosed Nuclei (%) for `Nc1ccc(C(=O)Nc2cccc(-c3nc(N4CCOCC4)c4oc5ncccc5c4n3)c2)cn1` , strictly under 20% or not?
F

Please indicate whether the reported Population Pyknosed Nuclei (%) of `CNC(=O)c1nn(C)c2c1C(C)(C)Cc1cnc(Nc3ccc(N4CCN(C)CC4)cc3)nc1-2` is strictly below 20%.
T

* * *

tested on: HEK-293T; assay: Multiplex assay against HEK293T; type: toxicity, cell-based; conditions: human, 24 h, 10 µM, compound concentration 10 uM, replicate 2
READOUT TYPE: Population Apoptotic (%)
Give bare numbers, in %.

MOLECULE: COc1ccc(NS(=O)(=O)c2sc3ccc(Cl)cc3c2C)cc1N1CCNCC1.Cl
Population Apoptotic (%): 90

MOLECULE: Cc1cn(-c2cc(NC(=O)c3ccc4c(c3)CN(c3cncnc3)C[C@@H]4C)cc(C(F)(F)F)c2)cn1
Population Apoptotic (%): 8

MOLECULE: Cl.Cl.Nc1ncnc2c1c(-c1cccc(OCc3ccccc3)c1)cn2[C@H]1C[C@@H](CN2CCC2)C1
Population Apoptotic (%): 100

MOLECULE: CN(C)CCOc1ccc(-c2nc(-c3ccncc3)c(-c3ccc4c(c3)CC/C4=N\O)[nH]2)cc1
Population Apoptotic (%): 1

# map each molecule to its Population Apoptotic (%)
1. CN(C)C/C=C/C(=O)Nc1cc2c(Nc3ccc(F)c(Cl)c3)ncnc2cc1O[C@H]1CCOC1.O=C(O)/C=C\C(=O)O.O=C(O)/C=C\C(=O)O [AFATINIB DIMALEATE]
2. Cc1cc2c(cc1N1C(=O)c3cccc4c(CCCO)ccc(c34)C1=O)n(C)c(=O)n2C
3. Cc1nc(Cc2cccc(C(F)(F)F)c2)sc1-c1ccc(C(N)=O)nc1 [TP-024n]
4. CC(C)N1CCC(C)(C)c2cc(C#Cc3ccc(C(=O)O)cc3)ccc21

[25, 47, 36, 0]

* * *

test system: U2OS; assay: Multiplex assay against U2OS; assay type: toxicity, cell-based; settings: human, 12 h, 1 µM, compound concentration 1 uM, replicate 1
READOUT TYPE: Population Pyknosed Nuclei (%)
Numbers only, in %.

Worked cases, Population Pyknosed Nuclei (%) given:
COMPOUND: CC(C)(C)c1cnc(CSc2cnc(NC(=O)C3CCNCC3)s2)o1
SCALE UNIT: %
Population Pyknosed Nuclei (%): 16
--
COMPOUND: Nc1ccc(C(=O)Nc2cccc(-c3nc(N4CCOCC4)c4oc5ncccc5c4n3)c2)cn1
SCALE UNIT: %
Population Pyknosed Nuclei (%): 15
--
COMPOUND: CCc1cc2c(cc1CC)CC(NC[C@H](O)c1ccc(O)c3[nH]c(=O)ccc13)C2
SCALE UNIT: %
Population Pyknosed Nuclei (%): 13
--
COMPOUND: CN(C)CCOc1ccc(-c2nc(-c3ccncc3)c(-c3ccc4c(c3)CC/C4=N\O)[nH]2)cc1
SCALE UNIT: %
Population Pyknosed Nuclei (%): 34
--
COMPOUND: Cc1nc(Cc2cccc(C(F)(F)F)c2)sc1-c1ccc(C(N)=O)nc1 [TP-024n]
SCALE UNIT: %
Population Pyknosed Nuclei (%): 6
--
COMPOUND: Cc1cc2c(cc1N1C(=O)c3cccc4c(CCCO)ccc(c34)C1=O)n(C)c(=O)n2C
SCALE UNIT: %
Population Pyknosed Nuclei (%): 5

Hey, quick one: what's Population Pyknosed Nuclei (%) for each of these?
1. CN(C)C/C=C/C(=O)Nc1cc2c(Nc3ccc(F)c(Cl)c3)ncnc2cc1O[C@H]1CCOC1.O=C(O)/C=C\C(=O)O.O=C(O)/C=C\C(=O)O [AFATINIB DIMALEATE]
2. CCOc1cc(N2CCC(O)CC2)ccc1Nc1ncc2c(n1)N(C1CCCC1)CCC(=O)N2C
3. CCn1c(-c2nonc2N)nc2cnc(Oc3cccc(NC(=O)c4ccc(OCCN5CCOCC5)cc4)c3)cc21 [GSK-269962A]
4. O=C(O)c1ccc2cc(-c3ccc(O)c(C45CC6CC(CC(C6)C4)C5)c3)ccc2c1
5. Cc1cn(-c2cc(NC(=O)c3ccc4c(c3)CN(c3cncnc3)C[C@@H]4C)cc(C(F)(F)F)c2)cn1

10
8
21
11
11

Batch lookup, Population Pyknosed Nuclei (%) per entry.
1. Cl.Cl.NC1(c2ccc(-c3nc4ccn5c(=O)[nH]nc5c4cc3-c3ccccc3)cc2)CCC1
2. Cl.Cl.Nc1ncnc2c1c(-c1cccc(OCc3ccccc3)c1)cn2[C@H]1C[C@@H](CN2CCC2)C1
3. CC(C)Oc1ccc(C(=O)N[C@H](CNC(=O)CN(C)C)Cc2ccc(-c3cn4cccc([C@H](C)O)c4n3)cc2)cc1Cl [GSK-923295A]
4. CNc1oc(-c2cccc3ccccc23)nc1C#N
5. CNC(=O)c1nn(C)c2c1C(C)(C)Cc1cnc(Nc3ccc(N4CCN(C)CC4)cc3)nc1-2
6. COc1ccc(NS(=O)(=O)c2sc3ccc(Cl)cc3c2C)cc1N1CCNCC1.Cl
7. CCC(=O)O[C@]1(C(=O)SCF)[C@H](C)C[C@H]2[C@@H]3C[C@H](F)C4=CC(=O)C=C[C@]4(C)[C@@]3(F)[C@@H](O)C[C@@]21C [FLUTICASONE PROPIONATE]
8. COc1cc2c(NC3CCN(C(C)C)CC3)nc(N3CCC(F)(F)CC3)nc2cc1OCCCN1CCCC1

1: 6; 2: 16; 3: 15; 4: 10; 5: 15; 6: 12; 7: 9; 8: 17
